Target: CGRP receptor (Homo sapiens, UniProt O60894+Q16602)
Sequence (Q16602 23-461): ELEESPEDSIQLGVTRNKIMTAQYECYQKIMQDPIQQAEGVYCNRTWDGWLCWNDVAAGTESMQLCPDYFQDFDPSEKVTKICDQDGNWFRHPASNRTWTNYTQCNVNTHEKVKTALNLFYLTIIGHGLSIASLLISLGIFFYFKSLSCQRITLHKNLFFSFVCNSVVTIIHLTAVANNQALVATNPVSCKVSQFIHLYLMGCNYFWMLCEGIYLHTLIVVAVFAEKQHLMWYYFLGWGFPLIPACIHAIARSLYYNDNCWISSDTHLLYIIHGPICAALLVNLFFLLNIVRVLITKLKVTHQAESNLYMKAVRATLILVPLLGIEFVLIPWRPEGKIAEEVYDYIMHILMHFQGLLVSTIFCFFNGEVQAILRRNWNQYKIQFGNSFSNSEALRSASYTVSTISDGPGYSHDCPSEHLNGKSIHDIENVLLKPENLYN
Sequence (O60894 27-148): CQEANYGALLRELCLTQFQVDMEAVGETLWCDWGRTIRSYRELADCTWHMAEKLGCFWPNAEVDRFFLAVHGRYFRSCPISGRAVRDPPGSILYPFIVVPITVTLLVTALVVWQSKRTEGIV
Assay: Cyclic AMP functional antagonism assay in SK-N-MC cells
Type: cell-based
Set-up: SK—N-MC cells that endogenously express the human CGRP receptor; endogenous in cells; host or cells: SK-N-MC cells
Settings: inhibition of 0.3 nM CGRP-induced cyclic AMP formation, 15 min pre-incubation, read-out: cAMP Function IC50
Experimental: Cyclic AMP Functional Antagonism Assay. Antagonism of the compounds of invention was determined by measuring the formation of cyclic AMP (adenosine 3′5′-cyclic monophosphate) in SK—N-MC cells that endogenously express the human CGRP receptor. […] Cyclic AMP was extracted using the lysis reagent and its concentration was determined by radioimmunoassay using RPA559 cAMP SPA Direct Screening Assay Kit (Amersham Pharmacia Biotech). IC50 values were calculated using Excel fit.
Readout Type: IC50

{"columns": ["Molecule", "Measured Value"],
 "data": [
  ["O=C(NC1Cc2ccc3[nH]ncc3c2CN(Cc2ccncc2)C1=O)N1CCC(N2Cc3ccccc3NC2=O)CC1 (stereo not drawn)", "10 to 100 nM"],
  ["O=C(C[C@@H]1Cc2cc(Cl)c3[nH]ncc3c2CN(Cc2ccncc2)C1=O)N1CCC(n2cc(-c3ccccc3)[nH]c2=O)CC1", "0.1 to 10 nM"]
]}

Attention now turns to another entry.
-- ask Data request, read-out IC50, for "CC(C)(C)CN1Cc2c(cc(Cl)c3[nH]ncc23)C[C@@H](CC(=O)N2CCC(c3cc4cccc(F)c4[nH]c3=O)CC2)C1=O"
-- reply 10 to 100 nM

* * *

Molecular target: CGRP receptor (Homo sapiens, UniProt O60894+Q16602)
Test: CGRP radioligand binding assay ([125I]-CGRP displacement, SK-N-MC homogenate)
Set-up: endogenous in cells; host or cells: SK-N-MC cells (homogenate/membrane pellet)
Conditions: displacement of [125I]-CGRP, room temperature 2 h
Readout Type: IC50

-- ask Data request, read-out IC50, for "CC(C)c1cc2c(c3cn[nH]c13)CN(CC(F)(F)F)C(=O)[C@H](CC(=O)N1CCC(c3cc4ccccc4[nH]c3=O)CC1)C2"
-- reply 10 to 100 nM

-- ask Data request, read-out IC50, for CN1Cc2cc(O)ccc2CC(NC(=O)N2CCC(N3Cc4ccccc4NC3=O)CC2)C1=O (stereo not shown)
-- reply 100 to 1000 nM

-- ask Data request, read-out IC50, for "CC(C)(C)CN1Cc2c(cc(Cl)c3[nH]ncc23)C[C@@H](CC(=O)N2CCC(c3cc4cccc(F)c4[nH]c3=O)CC2)C1=O"
-- reply 10 to 100 nM

-- ask Data request, read-out IC50, for "CC(C)(C)OC(=O)N1CCC(N2Cc3c(ccc4[nH]ncc34)C[C@@H](NC(=O)N3CCC(N4Cc5ccccc5NC4=O)CC3)C2=O)CC1"
-- reply 10 to 100 nM

-- ask Data request, read-out IC50, for "CC(C)(C)CN1Cc2c(cc(Cl)c3[nH]ncc23)C[C@@H](CC(=O)N2CCC(c3ccc(Cl)cc3Cl)CC2)C1=O"
-- reply 100 to 1000 nM

-- ask Data request, read-out IC50, for "CC(C)(C)CN1Cc2c(cc(Cl)c3[nH]ncc23)C[C@@H](N/C(=N/C#N)N2CCC(c3cc4ccccc4[nH]c3=O)CC2)C1=O"
-- reply 0.1 to 10 nM

-- ask Data request, read-out IC50, for "O=C(N[C@@H]1Cc2cc3cn[nH]c3cc2CN(Cc2ccccc2)C1=O)N1CCC(N2Cc3ccccc3NC2=O)CC1"
-- reply 0.1 to 10 nM
